# target system: DCN1 (Homo sapiens (Human), UniProt Q96GG9)
# Sequence (Q96GG9 whole entry): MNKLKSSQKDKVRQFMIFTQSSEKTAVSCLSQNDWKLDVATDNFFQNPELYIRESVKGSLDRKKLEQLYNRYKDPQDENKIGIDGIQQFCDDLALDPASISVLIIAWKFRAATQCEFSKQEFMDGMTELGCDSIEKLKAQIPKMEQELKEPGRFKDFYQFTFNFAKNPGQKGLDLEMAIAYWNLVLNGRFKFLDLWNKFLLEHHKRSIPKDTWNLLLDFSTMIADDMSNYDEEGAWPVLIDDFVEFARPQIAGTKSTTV
# protocol text: TR-FRET binding assay (biotin-DCN1 / Ac-UBE2M12-AlexaFluor488)
# experimental context: mean ± SD (n); read-out: DCN1_TRFRET Mean EC50
EC50 listing for selected molecules.
Field format: number, assumed nM, no unit text.

In [3]: df
Out[3]:
                            chemical_string  measured_attribute  value_observed
0  CCN1C(=O)[C@@H](NC(=O)c2cccc(C)c2)[C@@H](c2ccc(F)cc2)c2c(C)nn(-c3ccccc3F)c21                EC50             187
1  CCN1C(=O)[C@@H](NC(=O)c2cccc(F)c2)[C@@H](c2ccc(F)cc2)c2c(C)nn(-c3ccccc3)c21                EC50            1810
2  CCN1C(=O)[C@@H](NC(=O)c2cccc(C(F)(F)F)c2)[C@@H](c2ccc(F)cc2)c2c(CN3CCNCC3)nn(-c3ccccc3)c21                EC50             141

Prompt: Return reported EC50; argument: CCN1C(=O)[C@@H](NC(=O)c2cccc(C(F)(F)F)c2)[C@@H](c2ccc(F)cc2)c2c(CN3CCN(C(=O)OC(C)(C)C)CC3)nn(-c3ccccc3)c21
Completion: 231

Prompt: Return reported EC50; argument: CCN1C(=O)[C@@H](NC(=O)c2cc(C)cs2)[C@@H](c2ccc(F)cc2)c2c(C)nn(-c3ccccc3)c21
Completion: 785

###

# target system: DCN1 (Homo sapiens (Human))
# protocol text: TR-FRET binding assay (biotin-DCN1 / Ac-UBE2M12-AlexaFluor488)
# experimental context: mean ± SD (n); read-out: DCN1_TRFRET Mean EC50
measured attribute: EC50

Prompt: Lab note: need EC50 for CCN1C(=O)[C@@H](NS(=O)(=O)c2cccc(C(F)(F)F)c2)[C@@H](c2ccc(F)cc2)c2c(C)nn(-c3ccccc3)c21 on DCN1 (Homo sapiens (Human)), anyone have it?
Completion: > 36.5 µM

Prompt: Lab note: need EC50 for CCCN1C(=O)[C@@H](N(CCC)C(=O)c2cccc(C(F)(F)F)c2)[C@@H](c2ccc(F)cc2)c2c(C)nn(-c3ccccc3)c21 on DCN1 (Homo sapiens (Human)), anyone have it?
Completion: > 36.5 µM

Prompt: Lab note: need EC50 for Cc1nn(-c2ccccc2)c2c1[C@H](c1ccc(F)cc1)[C@H](N(C)C(=O)c1cccc(C(F)(F)F)c1)C(=O)N2C on DCN1 (Homo sapiens (Human)), anyone have it?
Completion: > 36.5 µM

###

# target system: DCN1 (Homo sapiens (Human))
# protocol text: TR-FRET binding assay (biotin-DCN1 / Ac-UBE2M12-AlexaFluor488)
# experimental context: mean ± SD (n); read-out: DCN1_TRFRET Mean EC50
log10(EC50) listing for selected molecules.
Could you please treat all values as log10 of EC50 in µM?

>>> print(df.to_string())
                            chemical_string  measured_attribute  value_observed
0  Cc1cccc(C(=O)N[C@@H]2C(=O)N(C(C)C)c3c(c(C)nn3-c3ccccc3)[C@@H]2c2ccc(F)cc2)c1         log10(EC50)            0.62
1  CCN1C(=O)[C@@H](NC(=O)c2cccc(C(F)(F)F)c2)[C@@H](c2cc(C)cs2)c2c(C)nn(-c3ccccc3)c21         log10(EC50)            0.49
2  C=CC(=O)NCc1nn(-c2ccccc2)c2c1[C@H](c1ccc(F)cc1)[C@H](NC(=O)c1cccc(C(F)(F)F)c1)C(=O)N2CC         log10(EC50)           -1.02
3  CCN1C(=O)[C@@H](NC(=O)c2cccc(C(F)(F)F)c2)[C@@H](c2ccc(F)c(C(F)(F)F)c2)c2c(C)nn(-c3ccccc3)c21         log10(EC50)            0.68
4  CCCN1C(=O)[C@@H](NC(=O)c2cccc(C)c2)[C@@H](c2ccc(F)cc2)c2c(C)nn(-c3ccccc3)c21         log10(EC50)            0.02

Prompt: Return reported log10(EC50); argument: CCN1C(=O)[C@@H](NC(=O)c2cccc(C)c2)[C@@H](c2ccc(F)cc2)c2c(CN)nn(-c3ccccc3)c21
Completion: -0.77

###

# target system: UniProt Q96GG9
# protocol text: TR-FRET binding assay (biotin-DCN1 / Ac-UBE2M12-AlexaFluor488)
# experimental context: mean ± SD (n); read-out: DCN1_TRFRET Mean EC50
pEC50: −log10 of the molar value.
measured attribute: pEC50

Examples with their reported pEC50 follow.
>>> print(df.to_string())
                                   compound   target_system  value_observed
0  CCN1C(=O)[C@@H](NC(=O)c2cccc(S(C)(=O)=O)c2)[C@@H](c2ccc(F)cc2)c2c(C)nn(-c3ccccc3)c21 [RG-0013977]  UniProt Q96GG9          < 4.44
1  CCOC1=Nc2c(c(C)nn2-c2ccccc2)[C@H](c2ccc(F)cc2)[C@@H]1NC(=O)c1cccc(C(F)(F)F)c1 [RG-0009518]  UniProt Q96GG9          < 4.44
2  Cc1nn(-c2ccccc2)c2c1[C@H](c1ccc(F)cc1)[C@H](NC(=O)c1cccc(C(F)(F)F)c1)C(=O)N2CCO[Si](C)(C)C(C)(C)C [RG-0014164]  UniProt Q96GG9          < 4.44

Now examine the next entry.
Prompt: Return reported pEC50; argument: Cc1nn(-c2ccccc2)c2c1[C@H](c1ccc(F)cc1)[C@H](NC(=O)c1cccc(C(F)(F)F)c1)C(=O)N2CCNC(=O)OC(C)(C)C [RG-0014162]
Completion: < 4.87
